Taken from PubChem BioAssay AID1159580.

This listing pairs molecules with measured normalized growth.
experiment: chemical genetic growth profiling, strain panel (AID 1159580);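 also: tested at 20 µM; growth read once vehicle control cultures reached saturation at 30 °C; 1 = growth at the plate median or of vehicle wells; lower values mean less growth of the strain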; details: S. cerevisiae deletion strains, growth OD, locus YPL153C, strain RAD53, active compounds read low
Screen size: about 5,500 compounds; about 2,000 (36%) were called active. Another 18% or so got no clear call; they are omitted. This is one part of the list.

[
  {
    "molecule": "O=C1Nc2ccccc2/C1=C\\c1ccc(Cl)cc1",
    "normalized growth": 0.836
  },
  {
    "molecule": "Oc1c(Br)cc(Br)cc1C=Nc1ccccn1",
    "normalized growth": 0.23
  },
  {
    "molecule": "FC(F)(F)c1cccc(NC(=S)NN=C2CCCCCC2)c1",
    "normalized growth": 0.872
  },
  {
    "molecule": "Oc1c(Cl)cc(Cl)cc1/C=N\\NC(=S)Nc1cc(C(F)(F)F)cc(C(F)(F)F)c1",
    "normalized growth": 0.171
  },
  {
    "molecule": "COc1ccc(/C=C2/C(=O)Nc3ccccc32)cc1",
    "normalized growth": 0.788
  },
  {
    "molecule": "O=C1Nc2ccccc2/C1=C/c1ccc(C(F)(F)F)cc1Cl",
    "normalized growth": 0.934
  },
  {
    "molecule": "O=C1Nc2ccccc2/C1=C\\c1cccc([N+](=O)[O-])c1",
    "normalized growth": 0.992
  },
  {
    "molecule": "Cc1c(C)c(C)c(C(O)c2ccccc2)c(C)c1C (stereo unspecified)",
    "normalized growth": 0.783
  },
  {
    "molecule": "Oc1c(Br)cc(Br)cc1C=Nc1ccc(Sc2ccccc2)nc1Sc1ccccc1",
    "normalized growth": 0.249
  },
  {
    "molecule": "COCCCNC(=S)N/N=C\\c1cc(Br)ccc1O",
    "normalized growth": 0.951
  },
  {
    "molecule": "Cc1cc(Cl)ccc1NNC(=O)c1sccc1Cl",
    "normalized growth": 0.803
  }
]
